test system: HOP-92; assay: NCI tumour cell line growth inhibition, 48 h
The source made the active and inactive calls. No stated cut-off is given here; in the data, active = GI50 up to about 1.1 µM and inactive = higher.
Classes used: 1 (active), 0 (inactive)

INSERT INTO measurements (molecule, assigned_class) VALUES
  ('S=C(N/N=C(/c1ccccc1)c1ccccn1)Nc1ccc(Cl)cc1', 0),
  ('Cc1c(Br)c(Br)c(C)[s+]1[O-]', 0),
  ('O=P(O)(O)OC1O[C@H](CO)[C@H](O)[C@H](O)[C@H]1O (stereo not given in full)', 0),
  ('CC(=O)OC1=C2CC[C@@H]3C(CC[C@@]4(C)C3CC[C@@H]4OC(C)=O)[C@@]2(C)CC(C#N)C1=O (stereo not given in full)', 0),
  ('CN(C)C(=S)/N=c1\ssc(=S)n1Cc1cccs1', 0),
  ('COc1cc(/C=C\c2ccc(SC)cc2)cc(OC)c1OC', 1),
  ('CSc1nc(NC2OCC(O)C(O)C2O)c(N)c(=O)n1C (stereo not given)', 0),
  ('CC1=C(C(=O)Nc2ccc([N+](=O)[O-])cc2)C(c2ccccc2O)C(C(=O)Nc2ccc([N+](=O)[O-])cc2)=C(C)N1', 0),
  ('CCC(=O)NCC1CCCN2CCCCC12 (stereo not given)', 0),
  ('COc1cc(C)c(C)c(OC(=O)c2c(C)c(C)c(OC)c(C)c2OC)c1C', 0),
  ('N#CC(C#N)=CNCCN1CCN(C=C(C#N)C#N)CC1', 0),
  ('O=C1c2c(nc3ccccc3c2-c2ccccc2)CN1Nc1ccccc1', 0),
  ('CCCCOCCOC1=C(Cl)C(=O)c2c(O)ccc(O)c2C1=O', 1),
  ('Cc1nc2c(ccc3ncccc32)[nH]1', 0),
  ('CCCCc1c2c(nc3c1CCc1cc4c(nc1-3)-c1nc3c(c(CCCC)c1CC4)CCC/C3=C\c1ccccc1)/C(=C/c1ccccc1)CCC2', 0);

---

test system: SN12C; assay: NCI tumour cell line growth inhibition, 48 h
Activity calls are given as the source filed them. No stated cut-off is given here; in the data, active = GI50 up to about 1.1 µM and inactive = higher.
Quantity kind: GI50

INSERT INTO assay_data (compound, quantity_kind, endpoint_result) VALUES
  ('O=C(O)CN(CC(=O)O)Cc1cc(C#Cc2ccc(C#Cc3ccccc3)cc2)cc(CN(CC(=O)O)CC(=O)O)n1', 'GI50', '19.7 µM (inactive)'),
  ('C=C1CC(OC(C)=O)/C=C(/C)CCC(C(C)(C)O)CC1O (centres undefined)', 'GI50', '> 100 µM (inactive)'),
  ('CC1(C)O[C@@H](CP(c2ccccc2)c2ccccc2)[C@H](CP(c2ccccc2)c2ccccc2)O1', 'GI50', '4.11 µM (inactive)'),
  ('C/C(CC(O)(/C=N/O)c1ccccc1)=N/O (centres undefined)', 'GI50', '> 100 µM (inactive)');

---

system: RPMI-8226; assay: NCI tumour cell line growth inhibition, 48 h
Active and inactive are the calls of the source. Rule as the data show it: active = GI50 up to about 1.1 µM and inactive = higher.
Classes used: Yes (active), No (inactive)

INSERT INTO measurements (molecule, tgt, assigned_class) VALUES
  ('Cc1ccc2c(c1C)CC1(Cc3ccc(C)c(C)c3C1=O)C2=O (centres undefined)', 'RPMI-8226', 'No'),
  ('CC(C)=CC(C(O)c1ccccc1)S(=O)(=O)c1nccn1C (centres undefined)', 'RPMI-8226', 'No'),
  ('COc1cc([C@@H]2c3cc4c(cc3[C@@H](NCc3ccc(C#N)cc3)C3COC(=O)[C@@H]32)OCO4)cc(OC)c1O (some centres undefined)', 'RPMI-8226', 'Yes'),
  ('O=c1[nH]nc(Cc2ccccc2)n1/N=C/c1c[nH]c2ccccc12', 'RPMI-8226', 'No'),
  ('Cn1c(=O)c2nc(CSCc3ccccc3)[nH]c2n(C)c1=O', 'RPMI-8226', 'No'),
  ('O=C(O)/C(Cc1ccc([N+](=O)[O-])cc1)=N\O', 'RPMI-8226', 'No'),
  ('CC1(C)COC(c2cccc(C(O)c3ccc(Cl)cc3)c2)=N1 (centres undefined)', 'RPMI-8226', 'No'),
  ('O=C1c2ccccc2NC1(c1ccccc1)c1c(-c2ccccc2)[nH]c2ccccc12 (centres undefined)', 'RPMI-8226', 'No'),
  ('O=c1c(Cl)cc2nc3ccccc3sc-2c1Cl', 'RPMI-8226', 'No'),
  ('CCOC(=O)C1CCCCc2sc(N)c(C#N)c21 (centres undefined)', 'RPMI-8226', 'No'),
  ('COC12CCC(=O)C=C1c1ccccc1N2C(C)=O (centres undefined)', 'RPMI-8226', 'No'),
  ('C/C(=N\O)c1sc(-n2nc(-c3ccccc3)cc2-c2ccccc2)nc1C', 'RPMI-8226', 'No'),
  ('CCOc1ccc2nc(NC(=O)C(=O)C(c3cnc4ccccc4n3)[N+](=O)[O-])sc2c1 (centres undefined)', 'RPMI-8226', 'No'),
  ('Cc1cc(=O)n2nc(SCc3ccccc3)sc2n1', 'RPMI-8226', 'No');
